Just for reference, ChEMBL document CHEMBL1828586 is where these values come from.

Measured IC50 accompanies every entry in the list below.
- System: DU-145
- EXPERIMENT_NOTES: Anticancer activity against human DU145 cells after 96 hrs by SRB assay
- Format: functional, cell-based
- DETAILS: DU-145, 96 h
Answer with a number only, understood to be in nM.

Respond only with IC50 recorded for COc1cc(C(=O)[C@@H]2CSC(c3ccc(O[Si](C)(C)C(C)(C)C)cc3)=N2)cc(OC)c1OC
434

Fill in reported IC50 for this entry: COc1cc(C(=O)c2csc(-c3ccc4[nH]ccc4c3)n2)cc(OC)c1OC
13

###

- EXPERIMENT_NOTES: AUC in Sprague-Dawley rat at 5 mg/kg, iv by LC-MS/MS analysis
- Assay type: ADME, organism-based
- Design: dose 5 mg/kg, route intravenous
- DETAILS: plasma
compounds and their reported AUC
Lab book: enter the figure in ng·h/mL, no units written.

COc1cc(C(=O)c2csc(Nc3ccc(F)cc3)n2)cc(OC)c1OC.Cl    6350

Proceeding to the next compound to report its AUC.
For the compound COc1cc(C(=O)c2csc(Nc3ccccc3)n2)cc(OC)c1OC.Cl , give its reported AUC.
4930

###

- EXPERIMENT_NOTES: AUC in Sprague-Dawley rat at 10 mg/kg, po by LC-MS/MS analysis
- Assay type: ADME, organism-based
- Set-up: dose 10 mg/kg, route oral
- DETAILS: plasma
MEASUREMENT_TYPE: AUC (ng·h/mL)
Write down the numeric answer in ng·h/mL and omit the unit.

COc1cc(C(=O)c2csc(-c3ccccc3)n2)cc(OC)c1OC    617

Note AUC for the compound shown: COc1cc(C(=O)c2csc(Nc3ccc(F)cc3)n2)cc(OC)c1OC.Cl
2670

For the compound COc1cc(C(=O)c2csc(Nc3ccccc3)n2)cc(OC)c1OC.Cl , report AUC.
1080

###

- EXPERIMENT_NOTES: AUC in Sprague-Dawley rat at 4 mg/kg, po by LC-MS/MS analysis
- Type: ADME, organism-based
- Design: dose 4 mg/kg, route oral
- DETAILS: plasma
MEASUREMENT_TYPE: AUC (ng·h/mL)
# value in ng·h/mL; strip the unit string

Return AUC (reported value) for this molecule: COc1cc(C(=O)c2csc(-c3ccc(CN)cc3)n2)cc(OC)c1OC.Cl
6.67

###

- Tested on: NCI/ADR-RES
- EXPERIMENT_NOTES: Anticancer activity against P-gp overexpressing human NCI/ADR-RES cells after 96 hrs by SRB assay
- Format: functional, cell-based
Entries and their measured IC50 follow.
Report as a plain number; the unit nM is understood.

COc1cc(C(=O)c2cccc(-c3ccccc3)n2)cc(OC)c1OC    13
COc1cc(C(=O)c2csc(-c3ccc(CN)cc3)n2)cc(OC)c1OC.Cl    11
COc1cc(/C(=N\C#N)c2csc(-c3ccccc3)n2)cc(OC)c1OC    14

Could you please provide reported IC50 for COc1cc(C(=O)c2csc(Nc3ccc(C)cc3)n2)cc(OC)c1OC ? Thanks!
21

Quickly give me recorded IC50 for COc1cc(C(=O)c2csc(-c3ccc4[nH]ccc4c3)n2)cc(OC)c1OC
4

Output IC50 of COc1cc(C(=O)c2csc(Nc3ccc(F)cc3)n2)cc(OC)c1OC
25

Give recorded IC50. COc1cc(C(=O)c2csc(Nc3ccccc3)n2)cc(OC)c1OC
27
